Collected NSB (%) 0.5% BAK values appear next to each entry.
Assay: Non-specific binding (NSB) of drugs to ultrafiltration membrane filter, regenerated cellulose (Millipore Ultrafree-MC UFC 3LGC00, 10 k NMWL)
Format: physicochemical
Conditions: pretreatment 0.5% benzalkonium chloride; drug 10 uM; regenerated cellulose
Protocol: Various experiments were performed using the following reagents, surfactants and reservoirs (also comprising ultrafiltration units): human serum, pH 7.4 phosphate buffered saline (PBS), drug solution (i.e. compound) in serum at a concentration of 1-50 μM, and drug solution in PBS at a concentration of 1-50 μM were used as reagents. […] The ultrafiltration tube was centrifuged for 18 min at 3000 g at room temperature. […] Non-specific binding was calculated as follows: […]
Give the quantity in %, number only.

Sample records with NSB (%) 0.5% BAK:
[
  {
    "molecule": "COc1ccc(CCN(C)CCCC(C#N)(c2ccc(OC)c(OC)c2)C(C)C)cc1OC (stereo not shown) [Verapamil]",
    "NSB (%) 0.5% BAK": 43
  },
  {
    "molecule": "CC[C@]1(O)C[C@@H]2CN(CCc3c([nH]c4ccccc34)[C@@](C(=O)OC)(c3cc4c(cc3OC)N(C)[C@H]3[C@@](O)(C(=O)OC)[C@H](OC(C)=O)[C@]5(CC)C=CCN6CC[C@]43[C@@H]65)C2)C1 [Vinblastine]",
    "NSB (%) 0.5% BAK": 82
  },
  {
    "molecule": "CC(C)NCC(O)COc1cccc2ccccc12 (stereo not shown) [Propranolol]",
    "NSB (%) 0.5% BAK": 14
  }
]

# context switch: different molecule, same NSB (%) 0.5% BAK
The molecule listed as C[C@]12CCC(=O)C=C1CC[C@@H]1[C@@H]2[C@@H](O)C[C@@]2(C)[C@H]1CC[C@]2(O)C(=O)CO [Hydrocortisone] has a reported NSB (%) 0.5% BAK of 30

###

Experiment: Non-specific binding (NSB) of drugs to ultrafiltration membrane filter, regenerated cellulose (Millipore Ultrafree-MC UFC 3LGC00, 10 k NMWL)
Format: physicochemical
Details: pretreatment with 0.5% benzalkonium chloride; drug concentration 5 uM; regenerated cellulose
Recorded NSB (%) BAK for the following molecules
Write down the numeric answer in % and omit the unit.

[
  {
    "molecule": "CC(C)NCC(O)COc1cccc2ccccc12 (stereo not shown) [Propranolol]",
    "NSB (%) BAK": 13
  },
  {
    "molecule": "Cn1c(=O)c2[nH]cnc2n(C)c1=O [Theophylline]",
    "NSB (%) BAK": 0
  },
  {
    "molecule": "Cn1c(=O)c2c(ncn2C)n(C)c1=O [Caffeine]",
    "NSB (%) BAK": 0
  }
]

Then this molecule:
Query CC[C@]1(O)C[C@@H]2CN(CCc3c([nH]c4ccccc34)[C@@](C(=O)OC)(c3cc4c(cc3OC)N(C)[C@H]3[C@@](O)(C(=O)OC)[C@H](OC(C)=O)[C@]5(CC)C=CCN6CC[C@]43[C@@H]65)C2)C1 [Vinblastine] yields NSB (%) BAK of 64
